The entries below come with measured MFI values attached.
target: T1, 017-mut5 peptide (…)/HLA-A*02:01 complex on T2 cells (human); assay: flow cytometry, phage on peptide-loaded T2 cells
T1 construct: Alanine mutant at position 5
MEASURE: MFI

BINDER	ENDPOINT_VALUE
EXT017-28 scFv phage clone (scFv, full-length scFv with His+HA tags; also called EXT017-28 phage; phage clone #28) scFv: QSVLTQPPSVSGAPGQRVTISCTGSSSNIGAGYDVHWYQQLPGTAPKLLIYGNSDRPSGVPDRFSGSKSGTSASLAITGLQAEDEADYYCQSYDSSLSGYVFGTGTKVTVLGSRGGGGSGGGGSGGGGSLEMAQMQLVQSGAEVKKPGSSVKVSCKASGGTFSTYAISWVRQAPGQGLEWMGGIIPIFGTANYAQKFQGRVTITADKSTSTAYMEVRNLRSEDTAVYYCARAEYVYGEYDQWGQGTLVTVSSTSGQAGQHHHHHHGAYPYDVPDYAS	107
EXT017-20 scFv phage clone (scFv, full-length scFv with His+HA tags; also called EXT017-20 phage) scFv: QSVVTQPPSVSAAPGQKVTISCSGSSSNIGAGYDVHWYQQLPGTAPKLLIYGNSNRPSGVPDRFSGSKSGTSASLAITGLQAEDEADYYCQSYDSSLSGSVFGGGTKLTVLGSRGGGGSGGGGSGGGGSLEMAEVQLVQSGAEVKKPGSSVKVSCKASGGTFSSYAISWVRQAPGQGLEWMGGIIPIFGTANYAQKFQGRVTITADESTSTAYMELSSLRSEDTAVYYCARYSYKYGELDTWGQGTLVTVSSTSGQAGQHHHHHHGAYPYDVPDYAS	95
